Measured IC50 of individual entries
Biological target: GST-MEK (p45MEK) and GST-MAPK (p44MAP kinase) (Homo sapiens)
Assay: Cascade assay for inhibitors of the MAP kinase pathway (In Vitro)
Type: biochemical
Settings: incorporation of 32P into myelin basic protein
Experimental: Cascade Assay for Inhibitors of the MAP Kinase Pathway Incorporation of ^32P into myelin basic protein (MBP) was assayed in the presence of a glutathione S-transferase fusion protein containing p44MAP kinase (GST-MAPK) and a glutathione S-transferase fusion protein containing p45MEK (GST-MEK). […] Reactions were stopped after 20 minutes by addition of trichloroacetic acid and filtered through a GF/C filter mat. ^32P retained on the filter mat was determined using a 1205 Betaplate. […]

Observe how each entry below is paired with its result.
Cc1cc(I)ccc1Nc1ccc([N+](=O)[O-])cc1C(=O)N1CCC(O)C1 (centres unmarked) = 1.001 µM
Cc1cc(I)ccc1Nc1cc(F)ccc1CO = 0.418 µM
Cc1cc(I)ccc1Nc1ccc(I)cc1C(=O)NCCO = 1.355 µM
Cc1cc(I)ccc1Nc1cc(F)ccc1C(=O)NCC(O)CO (centres unmarked) = 0.399 µM

Next compound, IC50 to be filled in.
IC50 lookup needed for Cc1cc(I)ccc1Nc1cc(F)ccc1C(N)=O , thanks.
0.052 µM

---

Measured IC50 of individual entries
Biological target: UniProt Q02750
Experiment: Cascade assay for inhibitors of the MAP kinase pathway (In Vitro)
Assay type: biochemical
Conditions: incorporation of 32P into myelin basic protein
State the answer as a number, implicitly in nM.

Cc1cc(I)ccc1Nc1ccc(Br)cc1C(=O)N(C)C = 1945
Cc1cc(I)ccc1Nc1ccc([N+](=O)[O-])cc1C(=O)NC1CCCCC1 = 278
Cc1cc(I)ccc1Nc1ccc([N+](=O)[O-])cc1CO = 887

IC50 lookup needed for Cc1c(Nc2cc(F)ccc2C(=O)O)ccc(I)c1F , thanks.
101

Subsequent entry: Cc1cc(I)ccc1Nc1ccc(Cl)cc1C(=O)NC1CC1
1797

Subsequent entry: C=CCNC(=O)c1cc(Cl)ccc1Nc1ccc(I)cc1C
2902

Subsequent entry: Cc1cc(I)ccc1Nc1cc(F)ccc1C(=O)N(C)C
129

Subsequent entry: Cc1cc(I)ccc1Nc1ccc(Cl)cc1C(=O)NCCN1CCCC1
374

Subsequent entry: CCCCNC(=O)c1ccc(F)cc1Nc1ccc(I)cc1C
1814

Subsequent entry: Cc1cc(I)ccc1Nc1ccc(Cl)cc1C(=O)NCCO [Example 187]
561

Subsequent entry: Cc1cc(I)ccc1Nc1ccc(Br)cc1C(N)=O
412

---

Target: GST-MEK (p45MEK) and GST-MAPK (p44MAP kinase) (Homo sapiens, UniProt Q02750)
Sequence (Q02750 whole entry): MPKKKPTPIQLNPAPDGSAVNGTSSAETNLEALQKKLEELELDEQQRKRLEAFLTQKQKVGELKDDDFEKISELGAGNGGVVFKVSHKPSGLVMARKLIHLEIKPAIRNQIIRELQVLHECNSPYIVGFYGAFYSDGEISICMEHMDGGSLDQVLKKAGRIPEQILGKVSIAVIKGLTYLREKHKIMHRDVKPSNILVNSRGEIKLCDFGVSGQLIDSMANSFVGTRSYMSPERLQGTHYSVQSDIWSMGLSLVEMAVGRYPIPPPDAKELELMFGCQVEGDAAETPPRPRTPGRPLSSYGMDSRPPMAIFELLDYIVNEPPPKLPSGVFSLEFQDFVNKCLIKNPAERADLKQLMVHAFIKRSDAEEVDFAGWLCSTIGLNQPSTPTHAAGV
Test: Cascade assay for inhibitors of the MAP kinase pathway (In Vitro)
Assay type: biochemical
Conditions: incorporation of 32P into myelin basic protein
Note to self: class = bucket of IC50, per I (below 200 nM), II (200 nM to below 1000 nM), III (1000 nM or more)

Below are worked cases with known answers.
COc1ccc(Nc2ccc(I)cc2)c(C(=O)O)c1 [Example 24] = III
COc1cc(I)ccc1Nc1c(C(=O)O)ccc(F)c1F [Example 17] = II
Cc1cc(I)ccc1Nc1ccc(Br)cc1C(=O)NCCCN1CCN(CCO)CC1 [Example 92] = II
Cc1cc(I)ccc1Nc1ccc(I)cc1C(=O)O [Example 21] = II
Cc1cc(I)ccc1Nc1cc(F)ccc1C(=O)O [Example 1] = I

Band assignment needed for Cc1cc(I)ccc1Nc1ccc(Br)cc1C(=O)O [Example 8] please.
I

Subsequent entry: Cc1cc(I)ccc1Nc1ccc(Br)cc1CO [Example 52]
III

Subsequent entry: O=C(O)c1cc([N+](=O)[O-])ccc1Nc1ccc(I)cc1Br [Example 14]
I

Subsequent entry: Cc1cc(I)ccc1Nc1ccc(Cl)cc1C(=O)NCC(=O)O [Example 40]
II

Subsequent entry: Cc1cc(I)ccc1Nc1ccc(Cl)cc1C(=O)N(C)C [Example 39]
II

Subsequent entry: O=C(O)c1cc(Br)c(F)c(F)c1Nc1ccc(I)cc1Cl [Example 220]
I

Subsequent entry: Cc1cc(I)ccc1Nc1cccc(Cl)c1C(=O)O [Example 29]
III

Subsequent entry: COc1ccc(NC(=O)c2ccc(OC)c([N+](=O)[O-])c2)cc1 [Example 32]
I

Subsequent entry: Cc1cc(Br)ccc1Nc1cc(F)ccc1C(=O)O [Example 13]
I

Subsequent entry: O=C(O)c1cccc(Cl)c1Nc1ccc(I)cc1Cl [Example 25]
III

Subsequent entry: Cc1cc(I)ccc1Nc1cccc(F)c1C(=O)O [Example 26]
III

Subsequent entry: Cc1cc(I)ccc1Nc1ccc([N+](=O)[O-])cc1-c1nnn[nH]1 [Example 209]
III
